Every entry's value here was drawn from the Immune Epitope Database (IEDB).

- tgt: HLA-B*18:01
- experiment notes: IEDB peptide-MHC binding, purified MHC/competitive/radioactivity; filed as Kd, often an IC50 or EC50 that approximates it; bounds were set here for any values at or beyond the usual limits of such assays
- experimental conditions: source organism: Mammarenavirus juninense
pKd: −log10 of the molar value.

residue string | value comparator | pKd
LESLWAPFGV | = | 6.22
EELSMMYESL | = | 5.87
KDTPGGYCL | ≤ | 4.21

====

- tgt: HLA-B*51:01
- experiment notes: IEDB peptide-MHC binding, purified MHC/competitive/fluorescence; filed as Kd, often an IC50 or EC50 that approximates it; bounds were set here for any values at or beyond the usual limits of such assays
- experimental conditions: source organism: Mycobacterium tuberculosis H37Ra
pKd: −log10 of the molar value.
assay metric: pKd

residue string | observed value
LPVPLFPGF | 6.60

====

- tgt: HLA-A*02:01
- experiment notes: IEDB peptide-MHC binding, purified MHC/competitive/radioactivity; filed as Kd, often an IC50 or EC50 that approximates it; bounds were set here for any values at or beyond the usual limits of such assays
- experimental conditions: source organism: Dengue virus 4 Dominica/814669/1981
assay metric: Kd (nM)

residue string | tgt | observed value
LSMGLITIAV | HLA-A*02:01 | 79.6

====

- tgt: HLA-A*03:01
- experiment notes: IEDB peptide-MHC binding, purified MHC/direct/fluorescence; filed as Kd, often an IC50 or EC50 that approximates it; bounds were set here for any values at or beyond the usual limits of such assays
- experimental conditions: source organism: Campylobacter jejuni
pKd: −log10 of the molar value.

residue string | pKd
VSIRGSHHK | 6.84

====

- tgt: HLA-A*30:01
- experiment notes: IEDB peptide-MHC binding, purified MHC/competitive/radioactivity; filed as Kd, often an IC50 or EC50 that approximates it; bounds were set here for any values at or beyond the usual limits of such assays
- experimental conditions: source organism: Lymphocytic choriomeningitis virus (strain Armstrong)
pKd: −log10 of the molar value.
assay metric: pKd

residue string | tgt | observed value
FSKSRSTLMY | HLA-A*30:01 | 6.42

====

- tgt: HLA-B*15:01
- experiment notes: IEDB peptide-MHC binding, purified MHC/competitive/fluorescence; bounds were set here for any values at or beyond the usual limits of such assays
- experimental conditions: source organism: Zaire ebolavirus
pIC50: −log10 of the molar value.
As shown below, each of these sequences has a reported pIC50 value.

residue string | tgt | value comparator | pIC50
KLTEAITAA | HLA-B*15:01 | ≤ | 3.77
VKYLEGHGF | HLA-B*15:01 | ≤ | 4.14
TVIYRGTTF | HLA-B*15:01 | = | 5.33
FSTSDGKEY | HLA-B*15:01 | = | 4.94
YQATGFGTN | HLA-B*15:01 | = | 4.64
SVGHMMVIF | HLA-B*15:01 | = | 4.98
QAFEAGVDF | HLA-B*15:01 | = | 4.51

====

- tgt: HLA-B*15:42
- experiment notes: IEDB peptide-MHC binding, purified MHC/competitive/fluorescence; filed as Kd, often an IC50 or EC50 that approximates it; bounds were set here for any values at or beyond the usual limits of such assays
- experimental conditions: source organism: Salmonella enterica subsp. enterica serovar Paratyphi B str. SPB7

residue string | Kd
YESSHWLVV | ≥ 5 µM
